Target: Phosphodiesterase 3 (Homo sapiens, UniProt Q14432+Q13370)
Assay: Inhibitory effect in cGMP-inhibited Phosphodiesterase 3 (PDE 3) isolated from guinea pig ventricular tissue.
Assay type: protein assay, Cavia porcellus
Conditions: target entry is the homologue from another species
MEASUREMENT LABEL: IC50 (µM)

In the examples that follow, each entry is paired with its recorded IC50.
>  <SMILES ENTRY>
Cc1nc(SCc2ccc(-c3ccccc3-c3nn[nH]n3)cc2)c2ccccc2n1

>  <IC50 / µM>
4.8

$$$$
>  <SMILES ENTRY>
CCCc1nc(SCc2ccc(-c3ccccc3-c3nn[nH]n3)cc2)c2cc(C)cc(C)c2n1

>  <IC50 / µM>
11

$$$$
>  <SMILES ENTRY>
CCCCc1nc(SCc2ccc(-c3ccccc3-c3nn[nH]n3)cc2)c2ccccc2n1

>  <IC50 / µM>
8

$$$$

[A] CCc1nc(SCc2ccc(-c3ccccc3-c3nn[nH]n3)cc2)c2ccccc2n1
[B] CCc1nc(NCc2ccc(-c3ccccc3-c3nn[nH]n3)cc2)c2ccccc2n1
Param metric = IC50; output whichever of A , B has the minimum value. Return value: the label identifying the chosen record.
A
